System: OVCAR-5
Method description: NCI tumour cell line growth inhibition, 48 h
Calls of active or inactive are those of the source. Rule as the data show it: active = GI50 up to about 1.1 µM and inactive = higher.
Log the outcome using a class from YES for active, NO for inactive

COC(=O)c1ccc(NCC2=CC(=O)C=CC2=O)cc1O | NO
COc1ccc(/C=C/C2=NN(c3cccc(S(=O)(=O)O)c3)C3(C2)SCC(=O)N3c2nc3ccccc3s2)cc1 (centres undefined) | NO
COc1cccc2c1C(=O)c1c(O)c3c(c(O)c1C2=O)C[C@@](O)(C(=O)CO)CC3OC1CC(NCCCC(OC(C)=O)OC(C)=O)C(O)C(C)O1 (some centres undefined) | YES
CCCCc1ccc(Nc2nc(S)c3ncn(COCCO)c3n2)cc1 | NO
COC1/C=C/C(C)C(C(C)C(OC)C(C)CCC(=O)C(C)C(CCC(=O)O)OC)OC(=O)/C=C/C=C(\C)CC(OC)CC2=CC(=O)O[C@@H](C(C)C(OC)CC(OC)/C=C/C(C)C(OC)C1)[C@H]2O (some centres undefined) | NO

Request: So what was the verdict on COc1cc(C(O)C(=O)c2nc3ccc([N+](=O)[O-])cc3nc2O)ccc1O (centres undefined) in this test?
Response: NO

Request: Please let me know the test result on file for FC(F)(F)c1ccc2c(c1)nc(Cc1ccc(Cl)cc1)n2CC1CCCN2CCCCC12 (centres undefined) .
Response: NO

Request: Could you kindly confirm the outcome this assay logged for Cc1ccccc1/N=C/N(C)C ?
Response: NO

Request: # outcome recorded in this test, key = NC(Cc1c[nH]c(I)n1)C(=O)O (centres undefined)
Response: NO

====

Test system: NCI-H226
Method description: NCI tumour cell line growth inhibition, 48 h
Activity calls are given as the source filed them. Rule as the data show it: active = GI50 up to about 1.1 µM and inactive = higher.
Please answer using one outcome listed in 1 for active, -1 for inactive

A selection of reference data follows.
C=CC(=O)C#Cc1cnc(OC)nc1OC | -1
CN(C)c1ccc(C(=C2C=CC(=[N+](C)C)C=C2)c2ccc(N(C)C)cc2)cc1 [GENTIAN VIOLET] | 1
O=C(CC(C(=O)c1ccsc1)c1cccs1)c1cccs1 (configuration not stated) | -1

Request: Tell me the recorded outcome of this test for COc1ccc2c(c1OC)C(=O)c1cnccc1C2=O .
Response: -1

====

Tested on: NCI/ADR-RES
Method description: NCI tumour cell line growth inhibition, 48 h
Active and inactive are the calls of the source. Cut-off read from the data, not from the text of the source: active = GI50 up to about 1.1 µM and inactive = higher.
Hello, when you answer, please use one of the following outcomes: active, inactive

Worked cases, answers included:
NCCCNCCCCN1CCOC1=O | inactive
COc1cc(/C=C/C(=O)OCC23CC[C@@]4(C(=O)O)CCC(C)[C@H](C)C4C2=CCC2[C@@]4(C)CC[C@H](O)C(C)(C)C4CC[C@]23C)ccc1O (stereo partly drawn) | inactive

Request: Which outcome was entered for the compound Cc1cccc(Nc2nc3ccccc3nc2NS(=O)(=O)c2ccc(N)cc2)c1 in this test?
Response: inactive

Request: Assay outcome for NC(=O)NO [HYDROXYUREA] : what was it?
Response: inactive

Request: Test call for this compound, please: COc1ccc(N2C(=O)C3c4[nH]c5ccccc5c4C4CCCCCCCC4C3C2=O)cc1 (stereo not drawn)
Response: inactive

Request: Called result for c1ccc2cc3c(cc2c1)nc1ccccn13
Response: inactive

Request: Call for entry COc1cc2c(cc1OCCCCOc1cc(-c3ccc(F)cc3)nc(C)n1)N=C[C@@H]1CCCN1C2=O :
Response: active

Request: # fetch the recorded call for O=C1NC(Cc2c[nH]c3ccccc23)C(=O)N2C(c3ccccc3)c3[nH]c4ccccc4c3C[C@@H]12 (stereo partly drawn) here
Response: inactive

Request: Short answer needed: outcome of this test for CCOC1Oc2ccccc2-c2nc(SC)ncc21 (stereo not drawn) ?
Response: inactive

Request: Write down the call the test reported for this compound. Item: CCOc1cc2c(c(OCC)c1O)CC[C@@H]1[C@@H]2CC[C@]2(C)[C@@H](O)CC[C@@H]12
Response: inactive

Request: Outcome logged for Cc1ccc(/C=N/Nc2ncccn2)s1 in this assay:
Response: inactive

Request: Tell me the recorded outcome of this test for Cc1cn(C2CC(n3cc(Cn4cc(I)c(=O)[nH]c4=O)nn3)C(CO)O2)c(=O)[nH]c1=O (stereo not drawn) .
Response: inactive

Request: Which result was noted for this compound in the test: O=C1Nc2ccccc2/C1=N/Nc1nc(-c2ccccc2)cs1
Response: inactive

Request: Call for entry Cc1ccccc1/N=C/N(C)C :
Response: inactive

Request: How did this test come out for C[C@H](CCC(=O)O)[C@H]1CC[C@H]2[C@@H]3[C@@H](O)C[C@@H]4C[C@H](O)CC[C@]4(C)[C@H]3C[C@H](O)[C@]12C ?
Response: inactive

Request: // param item: Cc1ccc(Nc2cc(=O)[nH]c(=O)[nH]2)cc1CS ; yields the recorded call
Response: inactive

====

Test system: XF498
Method description: NCI tumour cell line growth inhibition, 48 h
Activity calls are given as the source filed them. No stated cut-off is given here; in the data, active = GI50 up to about 1.1 µM and inactive = higher.
The categories you may choose from are active, inactive

Worked set:
Cc1ccc(C)c(NC(=O)/C(=N\NC(N)=S)C(C#N)c2ccccc2)c1 (stereo not given) | inactive
CC1=C2N3C[C@@H](n4c(=O)n(C)c(=O)n43)C23CCC1n1c(=O)n(C)c(=O)n13 | inactive
COc1cc2c(c(OC)c1OC)-c1ccc(SC)c(=O)cc1[C@@H](NCc1ccccc1[N+](=O)[O-])CC2 | active

Request: Record lookup: outcome of this test for Cc1ccc([N+](=O)[O-])cc1NC(=O)C(=O)Cc1nc2ccc(C(=O)c3ccccc3)cc2nc1O ?
Response: inactive

Request: Assay result, entry CN(C)CC1CCCCCCCCCC(CN(C)C)C1=O (stereo not given) — outcome?
Response: inactive

====

Tested on: COLO 205
Method description: NCI tumour cell line growth inhibition, 48 h
Activity calls are given as the source filed them. Cut-off read from the data, not from the text of the source: active = GI50 up to about 1.1 µM and inactive = higher.
Assign a class; possible classes are active, inactive

Examples from the recorded data:
N=C(NC(=N)Nc1ccc(S(=O)(=O)Nc2cnc3ccccc3n2)cc1)Nc1ccc(Br)cc1 | inactive
C#CCNC(=O)NCCCCC(NC(=O)OCc1ccccc1)C(=O)OCc1ccccc1 (stereo not given) | inactive
COc1ccc(CNc2nc3c(NC(C)=O)cc(C(F)(F)F)cc3nc2-c2ccccc2)cc1OC | inactive
O=C(c1ccccc1)C(c1ccccc1)C1(O)C(=O)Nc2ccc([N+](=O)[O-])cc21 (stereo not given) | inactive
COc1ccccc1NC(=O)CC(=O)N/N=C/c1ccc(N(CCC#N)S(=O)(=O)c2ccccc2)cc1 | inactive
Cc1cc(Nc2ccc(S(=O)(=O)O)c3cc(S(=O)(=O)O)cc(S(=O)(=O)O)c23)c2ccccc2n1 | inactive

Request: Hello, I am checking results. What call was entered for O=C(Nc1cc(Cl)c(Cl)cc1Cl)C(=O)C1C(=O)NC(=S)NC1=O ?
Response: inactive

Request: Recorded test call requested for COc1ccc(Sc2ccccc2[N+](=O)[O-])cc1
Response: inactive

Request: Hey, what did the test say about COc1cc(C2c3cc4c(cc3OC(C)(O)C2C)OCO4)cc(OC)c1OC (stereo not given) ?
Response: active

Request: Entry CCCCc1ccc(Nc2nc3ncnc-3c[nH]2)cc1 : call = ?
Response: inactive

====

Tested on: NCI-H460
Method description: NCI tumour cell line growth inhibition, 48 h
The source made the active and inactive calls. No stated cut-off is given here; in the data, active = GI50 up to about 1.1 µM and inactive = higher.
Form entry, call: pick from class 1 = active, class 0 = inactive

Field: example entries. Status: answers known.
COc1ccc(C2SCC(=O)N2c2ccc(-n3c(-c4ccccc4)nc4ccccc4c3=O)cc2)cc1OC (stereo not given) | class 0
C=C(C)C(=O)O[C@H]1C/C(CO)=C/CCC(=C)C(OC(C)=O)[C@H]2OC(=O)C(=C)[C@H]12 (stereo not given in full) | class 0

Request: Field: outcome | Entry: Cc1ccc(S(=O)OC2C3CC4CC(C3)CC2C4)cc1 (stereo not given)
Response: class 0

Request: // return assay outcome for CCN(CCCl)c1cc(CN(C)C)cc(NC(=O)c2ccc(C(=O)Nc3cccc(CN(C)C)c3)cc2)c1
Response: class 1

Request: Kindly provide the recorded test outcome for the following compound: CN(C)CC1CCCCCCCCCC(CN(C)C)C1=O (stereo not given)
Response: class 0

====

Consider the following compounds and their measured GI50 readings.
Test system: BT-549
Method description: NCI tumour cell line growth inhibition, 48 h
Activity calls are given as the source filed them. Cut-off read from the data, not from the text of the source: active = GI50 up to about 1.1 µM and inactive = higher.

COc1cccc(C2ON=C(c3ccccc3)N2C23CC4CC(CC(C4)C2)C3)c1 (stereo not given) | > 10 µM (inactive)

Consider COC(=O)c1ccc(NCC2=CC(=O)C=CC2=O)cc1O . Its measured GI50 is 11.4 µM (inactive)

Measured GI50, C=C1CC(C)(COc2ccc3c(C)c(Cl)c(=O)oc3c2)OC1=O (stereo not given) : 1.31 µM (inactive)

get_value(item= CC1=NN(C(=O)CC(=O)Nc2ccc(Cl)cc2)C(=O)C1/N=N\c1ccc(S(=O)(=O)c2ccc(/N=N/C3C(=O)N(C(=O)CC(=O)Nc4ccc(Cl)cc4)N=C3C)cc2)cc1 (stereo not given) , readout=GI50) returns > 100 µM (inactive)

Input CC(=O)/C(=C/c1ccccc1F)C(=O)c1ccccc1 . Output GI50: 48.2 µM (inactive)
